Sourced from the supplement of paper PMC10567573

B1: MYBL2 (parent)
chain: FSPSQFLNFWNKQDTLELESPSLT

# Variants of: B1
# Assay Comment: protein stability index of a GFP-peptide fusion (GPS, HEK-293T) (PSI 1-6); higher = more stable;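 note: lentivirally expressed fusions sorted by FACS into six bins by GFP to DsRed ratio, PSI derived from sequencing read proportions per bin multiplied by bin number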
# Conditions: c terminus: a fixed tail appended
Could you label it 1 if measured protein stability index is 3 or higher, and -1 otherwise?

Sequence Record	Class Assignment
FSPSQFLNFWNKQDTLELYSPSLT [E19Y]	-1
FSPSSFLNFWNKQDTLELESPSLT [Q5S]	-1

Item FSPSDFLNFWNKQDTLELESPSLT [Q5D] with protein stability index of 3 or above?
-1

Item FSPSQFLNFWNKQDTLELESPKLT [S22K] with protein stability index of 3 or above?
1

Item FSPSQFLNFWNKQDTLELEMPSLT [S20M] with protein stability index of 3 or above?
1

Item FSPLQFLNFWNKQDTLELESPSLT [S4L] with protein stability index of 3 or above?
-1

Item FSPSQFLNFWNKYDTLELESPSLT [Q13Y] with protein stability index of 3 or above?
1

Item FSPSQFLNFWNNQDTLELESPSLT [K12N] with protein stability index of 3 or above?
-1

Item FSPSQFLNFWNKQDTLELESPSIT [L23I] with protein stability index of 3 or above?
1

Item FSPSQFLNFWNKQDTLELASPSLT [E19A] with protein stability index of 3 or above?
-1
